# systemName: α6β2γ2 GABAA receptor (Homo sapiens, UniProt P18507+P47870+Q16445)
# Construct: expressed in transfected cells
# Sequence (Q16445 20-453): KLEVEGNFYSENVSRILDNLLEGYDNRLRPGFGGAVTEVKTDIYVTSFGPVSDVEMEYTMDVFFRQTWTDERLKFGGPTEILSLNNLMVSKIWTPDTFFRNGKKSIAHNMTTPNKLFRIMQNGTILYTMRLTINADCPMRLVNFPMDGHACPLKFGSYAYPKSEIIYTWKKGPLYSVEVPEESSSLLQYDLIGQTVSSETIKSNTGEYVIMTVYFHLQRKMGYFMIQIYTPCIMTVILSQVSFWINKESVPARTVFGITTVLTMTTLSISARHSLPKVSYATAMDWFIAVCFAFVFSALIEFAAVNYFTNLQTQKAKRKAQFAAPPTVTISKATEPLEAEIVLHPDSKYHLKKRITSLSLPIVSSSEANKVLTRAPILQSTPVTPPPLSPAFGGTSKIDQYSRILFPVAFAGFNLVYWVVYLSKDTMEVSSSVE
# Sequence (P47870 25-512 limits assumed): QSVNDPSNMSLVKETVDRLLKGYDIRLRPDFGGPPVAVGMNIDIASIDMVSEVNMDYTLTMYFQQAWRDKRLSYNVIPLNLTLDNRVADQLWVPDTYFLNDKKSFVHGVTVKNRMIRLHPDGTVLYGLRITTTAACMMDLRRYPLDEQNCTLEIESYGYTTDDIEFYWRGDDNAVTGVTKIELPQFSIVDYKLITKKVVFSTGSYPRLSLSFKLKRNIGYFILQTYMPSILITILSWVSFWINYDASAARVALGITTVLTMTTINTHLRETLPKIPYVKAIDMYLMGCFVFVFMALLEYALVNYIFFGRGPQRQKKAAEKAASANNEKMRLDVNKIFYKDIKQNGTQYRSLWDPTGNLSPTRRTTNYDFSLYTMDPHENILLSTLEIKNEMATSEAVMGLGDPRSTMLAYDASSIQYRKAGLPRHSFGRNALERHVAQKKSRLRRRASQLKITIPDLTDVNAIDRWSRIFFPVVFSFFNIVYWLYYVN
# Sequence (P18507 40-475): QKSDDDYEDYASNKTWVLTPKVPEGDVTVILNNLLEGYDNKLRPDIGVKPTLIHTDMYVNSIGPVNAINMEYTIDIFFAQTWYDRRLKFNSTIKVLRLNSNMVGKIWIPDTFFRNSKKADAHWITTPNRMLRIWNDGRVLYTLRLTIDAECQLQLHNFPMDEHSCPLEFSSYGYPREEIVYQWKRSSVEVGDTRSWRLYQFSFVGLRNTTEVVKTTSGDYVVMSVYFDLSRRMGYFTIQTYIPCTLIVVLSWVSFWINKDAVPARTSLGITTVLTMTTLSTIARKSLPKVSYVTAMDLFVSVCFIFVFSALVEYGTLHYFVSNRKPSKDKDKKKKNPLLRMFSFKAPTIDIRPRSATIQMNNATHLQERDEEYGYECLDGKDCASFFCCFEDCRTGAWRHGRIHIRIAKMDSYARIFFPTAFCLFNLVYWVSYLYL
# measurementNotes: FLIPR modulation of GABAA receptor subtype in expressing cells
# Assay type: cell-based
# appliedConditions: cells exposed to GABA plus compound, — = value not measurable
measuredParameter: EC50

INSERT INTO assay_data (smiles, measuredparameter, valuereported) VALUES
  ('C[C@@]1(O)CC[C@@]2(C)[C@@H](CC[C@@H]3[C@@H]2CC[C@]2(C)[C@@H](C(=O)Cn4cc(C#N)cn4)CC[C@@H]32)C1', 'EC50', '1100 nM');

====

# systemName: α3β3γ2 GABAA receptor (Homo sapiens, UniProt P18507+P28472+P34903)
# Construct: expressed in transfected cells
# Sequence (P34903 29-492): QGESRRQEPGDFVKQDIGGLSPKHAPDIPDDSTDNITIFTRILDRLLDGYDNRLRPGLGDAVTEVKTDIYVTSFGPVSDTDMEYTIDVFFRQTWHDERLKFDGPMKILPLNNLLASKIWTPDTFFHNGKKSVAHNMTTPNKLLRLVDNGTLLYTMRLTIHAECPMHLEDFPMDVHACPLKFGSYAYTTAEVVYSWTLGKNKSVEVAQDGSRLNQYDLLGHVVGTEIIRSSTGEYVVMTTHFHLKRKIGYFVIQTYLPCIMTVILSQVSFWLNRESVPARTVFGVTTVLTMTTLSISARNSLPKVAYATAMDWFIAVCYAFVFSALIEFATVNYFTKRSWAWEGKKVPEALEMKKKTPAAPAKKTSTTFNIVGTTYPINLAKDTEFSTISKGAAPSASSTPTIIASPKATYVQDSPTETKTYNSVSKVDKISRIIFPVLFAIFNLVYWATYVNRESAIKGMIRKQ
# Sequence (P28472 26-473): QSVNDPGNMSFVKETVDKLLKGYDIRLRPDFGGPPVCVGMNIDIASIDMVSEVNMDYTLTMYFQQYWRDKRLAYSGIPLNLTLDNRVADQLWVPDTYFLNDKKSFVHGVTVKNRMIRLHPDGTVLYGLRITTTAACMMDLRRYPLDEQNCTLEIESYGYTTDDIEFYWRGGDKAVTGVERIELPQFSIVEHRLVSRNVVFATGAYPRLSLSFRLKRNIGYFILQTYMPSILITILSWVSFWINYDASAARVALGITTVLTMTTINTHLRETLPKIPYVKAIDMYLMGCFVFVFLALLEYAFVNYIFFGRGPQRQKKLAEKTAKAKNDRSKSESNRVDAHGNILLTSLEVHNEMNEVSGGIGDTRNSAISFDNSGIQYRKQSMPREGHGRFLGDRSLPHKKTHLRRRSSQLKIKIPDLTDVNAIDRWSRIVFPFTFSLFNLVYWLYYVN
# Sequence (P18507 40-475): as the sequence (P18507 40-475) above
# measurementNotes: FLIPR modulation of GABAA receptor subtype in expressing cells
# Assay type: cell-based
# appliedConditions: cells exposed to GABA plus compound, — = value not measurable
measuredParameter: EC50

INSERT INTO assay_data (compound, systemname, measuredparameter, valuereported) VALUES
  ('C[C@@]1(O)CC[C@@]2(C)[C@@H](CC[C@@H]3[C@@H]2CC[C@]2(C)[C@@H](C(=O)Cn4cc(C#N)cn4)CC[C@@H]32)C1 [CV-10155]', 'α3β3γ2 GABAA receptor (Homo sapiens, UniProt P18507+P28472+P34903)', 'EC50', '273 nM');

====

# systemName: α1β2γ2 GABAA receptor (Homo sapiens, UniProt P14867+P18507+P47870)
# Construct: expressed in transfected cells
# Sequence (P14867 28-456): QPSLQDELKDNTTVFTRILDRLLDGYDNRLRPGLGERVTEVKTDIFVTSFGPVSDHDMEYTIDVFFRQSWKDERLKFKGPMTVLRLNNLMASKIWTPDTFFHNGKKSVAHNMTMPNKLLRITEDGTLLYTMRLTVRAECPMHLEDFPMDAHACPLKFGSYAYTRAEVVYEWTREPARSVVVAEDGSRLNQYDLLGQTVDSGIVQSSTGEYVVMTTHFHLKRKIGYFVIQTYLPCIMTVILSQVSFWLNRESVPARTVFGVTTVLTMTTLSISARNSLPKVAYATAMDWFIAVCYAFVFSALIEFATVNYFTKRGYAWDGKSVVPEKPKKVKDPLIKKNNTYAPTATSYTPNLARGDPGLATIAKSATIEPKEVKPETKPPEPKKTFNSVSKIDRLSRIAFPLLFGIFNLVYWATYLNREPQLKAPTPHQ
# Sequence (P47870 25-512 limits assumed): as the sequence (P47870 25-512 limits assumed) above
# Sequence (P18507 40-475): as the sequence (P18507 40-475) above
# measurementNotes: FLIPR modulation of GABAA receptor subtype in expressing cells
# Assay type: cell-based
# appliedConditions: cells exposed to GABA plus compound, — = value not measurable
# Experimental: Cells expressing the indicated GABAA receptor subtype were exposed to gamma-aminobutyric acid in the presence of varying concentrations of either CV-10155 or SPNC-019, calcium flux was measured using a fluorometric imaging plate reader (FLIPR), and EC50 values for compounds were determined.
measuredParameter: EC50 (nM)

INSERT INTO results (molecule, valuereported) VALUES
  ('C[C@@]1(O)CC[C@@]2(C)[C@@H](CC[C@@H]3[C@@H]2CC[C@]2(C)[C@@H](C(=O)Cn4cc(C#N)cn4)CC[C@@H]32)C1 [CV-10155]', 839);

====

# systemName: α2β3γ2 GABAA receptor (Homo sapiens, UniProt P18507+P28472+P47869)
# Construct: expressed in transfected cells
# Sequence (P47869 29-451, one chain of several): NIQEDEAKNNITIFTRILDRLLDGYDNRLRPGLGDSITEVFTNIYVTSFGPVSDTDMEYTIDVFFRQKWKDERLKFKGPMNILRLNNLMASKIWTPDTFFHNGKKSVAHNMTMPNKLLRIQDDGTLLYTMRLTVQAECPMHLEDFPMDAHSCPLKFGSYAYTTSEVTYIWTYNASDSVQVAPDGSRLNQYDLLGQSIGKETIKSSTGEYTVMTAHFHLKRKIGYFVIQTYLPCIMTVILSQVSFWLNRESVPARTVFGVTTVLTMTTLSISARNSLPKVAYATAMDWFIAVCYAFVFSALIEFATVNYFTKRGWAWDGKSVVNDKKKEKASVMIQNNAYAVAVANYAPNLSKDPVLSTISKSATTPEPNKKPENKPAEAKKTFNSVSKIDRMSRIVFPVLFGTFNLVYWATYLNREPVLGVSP
# measurementNotes: FLIPR modulation of GABAA receptor subtype in expressing cells
# Assay type: cell-based
# appliedConditions: cells exposed to GABA plus compound, — = value not measurable
# Procedure: Cells expressing the indicated GABAA receptor subtype were exposed to gamma-aminobutyric acid in the presence of varying concentrations of either CV-10155 or SPNC-019, calcium flux was measured using a fluorometric imaging plate reader (FLIPR), and EC50 values for compounds were determined.
measuredParameter: EC50 (nM)

INSERT INTO assay_data (compound, valuereported) VALUES
  ('C[C@@]1(O)CC[C@@]2(C)[C@@H](CC[C@@H]3[C@@H]2CC[C@]2(C)[C@@H](C(=O)Cn4cc(C#N)cn4)CC[C@@H]32)C1 [CV-10155]', 296);

====

# systemName: α4β3δ GABAA receptor (Homo sapiens, UniProt O14764+P28472+P48169)
# Sequence (P48169 36-554): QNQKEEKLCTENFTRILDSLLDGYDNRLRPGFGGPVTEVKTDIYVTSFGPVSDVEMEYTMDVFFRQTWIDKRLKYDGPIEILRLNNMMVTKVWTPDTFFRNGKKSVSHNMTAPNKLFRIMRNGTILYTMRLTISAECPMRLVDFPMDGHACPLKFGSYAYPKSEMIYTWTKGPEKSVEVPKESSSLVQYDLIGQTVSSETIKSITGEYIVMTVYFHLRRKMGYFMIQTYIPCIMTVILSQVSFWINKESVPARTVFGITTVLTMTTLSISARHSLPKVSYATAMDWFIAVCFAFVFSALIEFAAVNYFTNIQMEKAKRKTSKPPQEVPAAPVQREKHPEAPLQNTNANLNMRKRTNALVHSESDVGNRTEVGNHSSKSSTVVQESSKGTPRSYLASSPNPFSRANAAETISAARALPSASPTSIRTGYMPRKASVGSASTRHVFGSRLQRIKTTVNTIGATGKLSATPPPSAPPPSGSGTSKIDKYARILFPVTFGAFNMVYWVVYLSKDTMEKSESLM
# Sequence (P28472 26-473): as the sequence (P28472 26-473) above
# Sequence (O14764 25-452): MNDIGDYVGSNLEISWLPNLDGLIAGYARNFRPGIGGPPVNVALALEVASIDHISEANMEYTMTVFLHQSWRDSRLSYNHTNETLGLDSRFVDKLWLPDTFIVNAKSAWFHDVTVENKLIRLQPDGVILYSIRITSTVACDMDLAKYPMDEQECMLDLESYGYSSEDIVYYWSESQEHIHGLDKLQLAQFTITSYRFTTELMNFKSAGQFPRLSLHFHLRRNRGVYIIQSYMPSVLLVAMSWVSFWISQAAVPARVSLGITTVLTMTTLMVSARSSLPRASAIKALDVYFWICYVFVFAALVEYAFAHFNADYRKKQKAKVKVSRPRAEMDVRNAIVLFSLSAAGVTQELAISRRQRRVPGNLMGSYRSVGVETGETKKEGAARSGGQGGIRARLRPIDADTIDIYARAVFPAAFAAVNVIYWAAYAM
# measurementNotes: FLIPR modulation of GABAA receptor subtype in expressing cells
# Format: cell-based
# Parameters: expressed in transfected cells
# appliedConditions: FLIPR, cells exposed to GABA plus compound; — = value not measurable
measuredParameter: EC50 (nM)

INSERT INTO results (compound, systemname, measuredparameter, valuereported) VALUES
  ('C[C@@]1(O)CC[C@@]2(C)[C@@H](CC[C@@H]3[C@@H]2CC[C@]2(C)[C@@H](C(=O)Cn4cc(C#N)cn4)CC[C@@H]32)C1 [CV-10155]', 'α4β3δ GABAA receptor (Homo sapiens, UniProt O14764+P28472+P48169)', 'EC50', 106);

====

# systemName: α3β1γ2 GABAA receptor (Homo sapiens, UniProt P18505+P18507+P34903)
# Construct: expressed in transfected cells
# measurementNotes: FLIPR modulation of GABAA receptor subtype in expressing cells
# Assay type: cell-based
# appliedConditions: cells exposed to GABA plus compound, — = value not measurable
measuredParameter: EC50 (nM)

INSERT INTO measurements (smiles, measuredparameter, outputunit, valuereported) VALUES
  ('C[C@@]1(O)CC[C@@]2(C)[C@@H](CC[C@@H]3[C@@H]2CC[C@]2(C)[C@@H](C(=O)Cn4cc(C#N)cn4)CC[C@@H]32)C1', 'EC50', 'nM', 946);

====

# systemName: α1β3γ2 GABAA receptor (Homo sapiens, UniProt P14867+P18507+P28472)
# Construct: expressed in transfected cells
# Sequence (P14867 28-456): as the sequence (P14867 28-456) above
# Sequence (P28472 26-473): as the sequence (P28472 26-473) above
# Sequence (P18507 40-475): as the sequence (P18507 40-475) above
# measurementNotes: FLIPR modulation of GABAA receptor subtype in expressing cells
# Format: cell-based
# appliedConditions: cells exposed to GABA plus compound, — = value not measurable
# Method: Cells expressing the indicated GABAA receptor subtype were exposed to gamma-aminobutyric acid in the presence of varying concentrations of either CV-10155 or SPNC-019, calcium flux was measured using a fluorometric imaging plate reader (FLIPR), and EC50 values for compounds were determined.
measuredParameter: EC50 (nM)

INSERT INTO results (smiles, measuredparameter, valuereported) VALUES
  ('C[C@@]1(O)CC[C@@]2(C)[C@@H](CC[C@@H]3[C@@H]2CC[C@]2(C)[C@@H](C(=O)Cn4cc(C#N)cn4)CC[C@@H]32)C1', 'EC50', 520);
